Test system: panel of 140 standard cancer cell lines
METHOD: ProliFiler-140 cancer cell line screen (CellTiterGlo, 72 h)
Type: cell-based
MEASUREMENT CONDITIONS: read-out: IC50 [M] (ProliFiler-140); HCC827 (Lung)
MEASURED METRIC: IC50 (M)
The answer is to be given in M; state only the numeric part.

Form: molecule = COc1cc2cc(C(=O)N3C[C@@H](CCl)c4c3cc(OC(=O)N3CCN(C(=O)CCC(=O)N5CCN(C)CC5)[C@H]5CSSC[C@H]53)c3ccccc43)[nH]c2c(OC)c1OC [P-SS66C-CBI-TMI] ; IC50 = 9.11e-08

---

Test system: NCI-60 standardized human tumor cell line panel
METHOD: cells
Type: cell-based
MEASUREMENT CONDITIONS: KM12; read-out: GI50
MEASURED METRIC: GI50 (nM)
The answer is to be given in nM; state only the numeric part.

See these solved cases before continuing.
Form: compound = COc1cc2cc(C(=O)N3CC(CCl)c4c3cc(OC(=O)N3CCN(C)C5CSSCC53)c3ccccc43)[nH]c2c(OC)c1OC (mixture of isomers) [Me-SS66T-CBI-TMI] ; GI50 = 44

Form: compound = COc1cc2cc(C(=O)N3CC(CCl)c4c3cc(OC(=O)N3CCN(C)C5CSSCC53)c3ccccc43)[nH]c2c(OC)c1OC (mixture of isomers) [Me-SS66C-CBI-TMI] ; GI50 = 1100

Further cases:
Form: compound = COc1cc2cc(C(=O)N3C[C@@H](CCl)c4c3cc(OC(=O)N(CCC(=O)N3CCN(C)CC3)[C@H]3CCSSC3)c3ccccc43)[nH]c2c(OC)c1OC ; GI50 = 270

Form: compound = COc1cc2cc(C(=O)N3C[C@@H](CCl)c4c3cc(OC(=O)N(CCC(=O)N3CCN(C)CC3)C3CCCCC3)c3ccccc43)[nH]c2c(OC)c1OC ; GI50 = 2100

Form: compound = COc1cc2cc(C(=O)N3C[C@@H](CCl)c4c3cc(OC(=O)N(C)CCSSCCN3CCOCC3)c3ccccc43)[nH]c2c(OC)c1OC [SS00M-CBI-TMI] ; GI50 = 150

---

Tested on: NCI-60 standardized human tumor cell line panel
METHOD: cells
Type: cell-based
MEASUREMENT CONDITIONS: SK-OV-3 (OV) cell line; log10 reductive index vs P-CC60
Item-by-item account of NCI-60 screening: Log(RedIndex)

See these solved cases before continuing.
Form: compound = COc1cc2cc(C(=O)N3C[C@@H](CCl)c4c3cc(OC(=O)N3CCN(C(=O)CCC(=O)N5CCN(C)CC5)[C@H]5CSSC[C@H]53)c3ccccc43)[nH]c2c(OC)c1OC [P-SS66C-CBI-TMI] ; NCI-60 screening: Log(RedIndex) = 1.47

Form: compound = COc1cc2cc(C(=O)N3CC(CCl)c4c3cc(OC(=O)N3CCN(C)C5CSSCC53)c3ccccc43)[nH]c2c(OC)c1OC (mixture of isomers) [Me-SS66T-CBI-TMI] ; NCI-60 screening: Log(RedIndex) = 2.24

Form: compound = COc1cc2cc(C(=O)N3CC(CCl)c4c3cc(OC(=O)N3CCN(C)C5CSSCC53)c3ccccc43)[nH]c2c(OC)c1OC (mixture of isomers) [Me-SS66C-CBI-TMI] ; NCI-60 screening: Log(RedIndex) = 1.8

Continue with the compound presented below.
Form: compound = COc1cc2cc(C(=O)N3C[C@@H](CCl)c4c3cc(OC(=O)N(CCC(=O)N3CCN(C)CC3)[C@H]3CCSSC3)c3ccccc43)[nH]c2c(OC)c1OC [P-SS60-CBI-TMI] ; NCI-60 screening: Log(RedIndex) = 0.91

Each recorded value in this set is attributed to paper PMC10141580.
